Where these numbers come from: patent US20240043504A1

Molecular target: receptor binding domain (RBD) portion of the SARS-CoV-2 Spike protein (amino acids Arg319-Phe541) ex (SARS-CoV-2)
readout.type: pIC50
Keep it numeric: pIC50 is minus log10 of the concentration in mol/L.

Q: Quick one: pIC50 of mAb10986 (antibody, V domains shown) VH: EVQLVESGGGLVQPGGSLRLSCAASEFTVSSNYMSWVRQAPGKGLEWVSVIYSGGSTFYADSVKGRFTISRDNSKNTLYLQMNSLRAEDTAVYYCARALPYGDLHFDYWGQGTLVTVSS VL: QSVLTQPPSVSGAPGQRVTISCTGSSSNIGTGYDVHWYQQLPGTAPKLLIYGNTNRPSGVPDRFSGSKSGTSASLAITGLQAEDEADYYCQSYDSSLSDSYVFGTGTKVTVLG ?
A: 10.12

Q: Quick one: pIC50 of mAb10938 (antibody, V domains shown) VH: EVQLVESGGGLVQPGGSLRLSCAVSGFTVSSNYMSWVRQAPGKGLEWVSLIYSGGSTFYADSVKGRFTISRHNSKNTLYLQMNSLRAEDTAVYYCAREGGYSYDYNYWGQGTLVTVSS VL: DIQMTQSPSSLSASVGDRVTITCQASQDIRNYLNWYQQKPGKAPKLLIYDASNLETGVPSRFSGIGSGTDFTFTISSLQPEDIATYYCQQYDNLPITFGQGTRLEIKR ?
A: 9.56

Q: Quick one: pIC50 of mAb11008 (antibody, V domains shown) VH: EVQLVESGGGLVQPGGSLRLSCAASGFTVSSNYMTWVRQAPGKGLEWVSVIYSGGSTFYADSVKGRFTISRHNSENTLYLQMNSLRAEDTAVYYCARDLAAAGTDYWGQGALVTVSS VL: DIQLTQSPSFLSASVGDRVTITCWASQGISSYLAWYQQKPGKAPKLLIYAASTLQSGVPSRFSGSGSGTEFTLTISSLQPDDFATYYCQHLNSYLYTFGQGTKLEIKR ?
A: 8.83

Q: Quick one: pIC50 of mAb10967 (antibody, V domains shown) VH: EVQLVESGGGLVQPGGSLRLSCAASGFTVSSNYMSWVRQAPGKGLEWVSVIYPGGSTFYADSVKGRFTISRDNSKNTLYLQMNSLRAEDTAVYYCARDQRDFAWGQGTLVTVSS VL: DIQMTQSPSSLSASVGDRVTITCQASQDISNYLNWYQQKPGKAPKLLIYDASNLETGVPSRFSGSGSGTDFTFTISGLQPEDIATYYCQQYDNLPPTFGQGTRLEIKR ?
A: 9.55

Q: Quick one: pIC50 of mAb10957 (antibody, V domains shown) VH: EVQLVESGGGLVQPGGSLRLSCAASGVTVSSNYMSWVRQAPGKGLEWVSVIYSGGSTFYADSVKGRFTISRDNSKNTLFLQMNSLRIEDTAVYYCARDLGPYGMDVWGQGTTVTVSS VL: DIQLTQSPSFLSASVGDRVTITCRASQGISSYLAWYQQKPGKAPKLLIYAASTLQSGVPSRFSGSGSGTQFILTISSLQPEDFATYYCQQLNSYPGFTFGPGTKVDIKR ?
A: 9.77

Q: Quick one: pIC50 of mAb10954 (antibody, V domains shown) VH: EVQLVESGGGLVQPGGSLRLSCAASGITVSSNYMSWVRQAPGKGLEWVSLIYSGGSTYYADSVKGRFTISRDNSKNTLYLQMNSLRVEDTAVYYCARDHGMAAAGYNYWGQGTLVTVSS VL: DIQMTQSPSSLSASVGDRVTITCQASQDINKYLNWYQQKPGKAPKLLIYDASNLETGVPSRFSGSGSGTDFTFTINSLQPEDFATYFCQQYDNLPPAFGQGTKVEIKR ?
A: 10.15

Q: Quick one: pIC50 of mAb10955 (antibody, V domains shown) VH: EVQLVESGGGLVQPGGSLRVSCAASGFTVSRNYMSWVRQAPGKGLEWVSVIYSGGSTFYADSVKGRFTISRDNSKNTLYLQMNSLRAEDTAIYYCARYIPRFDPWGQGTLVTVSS VL: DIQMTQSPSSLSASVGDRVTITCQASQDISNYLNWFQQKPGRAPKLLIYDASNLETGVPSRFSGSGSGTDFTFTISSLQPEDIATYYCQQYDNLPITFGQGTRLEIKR ?
A: 9.85

Q: Quick one: pIC50 of mAb10982 (antibody, V domains shown) VH: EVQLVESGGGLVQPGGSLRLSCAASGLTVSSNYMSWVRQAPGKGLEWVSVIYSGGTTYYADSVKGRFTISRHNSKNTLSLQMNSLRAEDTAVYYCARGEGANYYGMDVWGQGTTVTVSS VL: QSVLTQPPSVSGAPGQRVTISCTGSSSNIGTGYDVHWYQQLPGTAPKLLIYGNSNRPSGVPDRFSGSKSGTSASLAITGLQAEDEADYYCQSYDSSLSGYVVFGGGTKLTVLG ?
A: 9.94

Q: Quick one: pIC50 of mAb11006 (antibody, V domains shown) VH: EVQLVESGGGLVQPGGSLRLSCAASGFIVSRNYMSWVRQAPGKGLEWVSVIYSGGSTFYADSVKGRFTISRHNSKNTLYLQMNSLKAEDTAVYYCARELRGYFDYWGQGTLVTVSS VL: DIQLTQSPSFLSASVGDRVTITCWASQGISSYLAWYQQKPGKAPKLLIYAASTLQSGVPSRFSGSGSGTEFTLTISSLQPEDFATYYCQLLNSYPYTFGQGTKLEIKR ?
A: 9.66

Q: Quick one: pIC50 of mAb10914 (antibody, V domains shown) VH: EVQLVESGGGLVQPGGSLRLSCAASGLIVSRNYMIWVRQAPGKGLEWVSVIYSGGSTFYADSVKGRFTISRHNSKNTLYLQMNSLRAEDTAVYYCARDLGTGGMDVWGQGTTVTVSS VL: DIQLTQSPSFLSASVGDRVTITCWASQGISSYLAWYQQKPGKAPKLLIYAASTLQSGVPSRFSGSGSGTEFTLTISSLQPEDFATYYCQQLNSYPLTFGGGTKVEIKR ?
A: 9.01

Q: Quick one: pIC50 of mAb10998 (antibody, V domains shown) VH: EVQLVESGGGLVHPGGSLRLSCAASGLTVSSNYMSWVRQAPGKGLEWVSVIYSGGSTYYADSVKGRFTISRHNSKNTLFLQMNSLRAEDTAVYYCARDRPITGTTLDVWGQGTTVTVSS VL: DIQMTQSPSSLFASVGDRVTITCRASQSISSYLNWYQQKPGKAPKLLIYAASSLQSGVPSRFSGSGSGTDFTLTISSLQPEDFAFYYCQQTYSTPPITFGQGTRLEIKR ?
A: 8.37
